- ASSAYED_SYSTEM: recombinant human Myt1 (full length PKMYT1) (Homo sapiens (Human))
- Sequence (Q99640 whole entry): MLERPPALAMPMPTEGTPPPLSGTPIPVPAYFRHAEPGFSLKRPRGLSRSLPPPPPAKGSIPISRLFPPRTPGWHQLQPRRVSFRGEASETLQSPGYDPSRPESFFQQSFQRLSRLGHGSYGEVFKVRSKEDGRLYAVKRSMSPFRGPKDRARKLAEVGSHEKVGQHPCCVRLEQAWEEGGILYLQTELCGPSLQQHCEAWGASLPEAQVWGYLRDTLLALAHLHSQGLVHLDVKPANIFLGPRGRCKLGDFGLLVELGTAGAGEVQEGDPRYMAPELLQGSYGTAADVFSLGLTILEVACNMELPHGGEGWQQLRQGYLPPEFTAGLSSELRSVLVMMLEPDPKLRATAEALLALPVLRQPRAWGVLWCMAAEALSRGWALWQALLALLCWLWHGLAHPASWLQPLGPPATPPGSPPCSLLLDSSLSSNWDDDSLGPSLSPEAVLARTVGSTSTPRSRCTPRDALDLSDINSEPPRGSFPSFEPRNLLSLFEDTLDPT
- PROTOCOL_DETAILS: Recombinant human Myt1 kinase assay (ADP-Glo)
- CONDITION_NOTES: 10 μM ATP
pIC50: −log10 of the molar value.
pIC50: recorded values
READOUT_TYPE: pIC50

• Cc1ccc2[nH]ncc2c1-c1cc(-c2ccnc(OC3CCCC3)n2)nc(C(N)=O)c1N = 7.64
• Cc1ccc2[nH]ncc2c1-c1nc(-c2ccc(C#N)s2)nc(C(N)=O)c1N = 7.68
• Cc1ccc(O)cc1-c1nc(C2CCC(F)(F)CC2)nc(C(N)=O)c1N = 6.08
• Cc1ccc2[nH]ncc2c1-c1cc(-c2cnc(C(C)(C)O)s2)nc(C(N)=O)c1N = 6.64
• Cc1ccc2[nH]ncc2c1-c1cc(-c2csc(C(C)(C)O)n2)nc(C(N)=O)c1N = 6.79
• Cc1ccccc1-c1nc(C(N)=O)c(N)c(-c2cc(O)ccc2C)n1 = 6.47
• Cc1ccc2[nH]ncc2c1-c1nc(-c2ccc3c(cnn3C)c2)nc(C(N)=O)c1N = 7.34
• Cc1ccc2[nH]ncc2c1-c1nc(-c2cccc(C(=O)N3CCOCC3)c2)nc(C(N)=O)c1N = 7.74
